The following binders are shown together with reported kon values.
# testSystem: T1, human serum albumin (human, UniProt P02768 25-609)
# T1 construct: Immobilised by amine coupling on a C1 chip; also called HSA
# T1 sequence (P02768 25-609 limits assumed): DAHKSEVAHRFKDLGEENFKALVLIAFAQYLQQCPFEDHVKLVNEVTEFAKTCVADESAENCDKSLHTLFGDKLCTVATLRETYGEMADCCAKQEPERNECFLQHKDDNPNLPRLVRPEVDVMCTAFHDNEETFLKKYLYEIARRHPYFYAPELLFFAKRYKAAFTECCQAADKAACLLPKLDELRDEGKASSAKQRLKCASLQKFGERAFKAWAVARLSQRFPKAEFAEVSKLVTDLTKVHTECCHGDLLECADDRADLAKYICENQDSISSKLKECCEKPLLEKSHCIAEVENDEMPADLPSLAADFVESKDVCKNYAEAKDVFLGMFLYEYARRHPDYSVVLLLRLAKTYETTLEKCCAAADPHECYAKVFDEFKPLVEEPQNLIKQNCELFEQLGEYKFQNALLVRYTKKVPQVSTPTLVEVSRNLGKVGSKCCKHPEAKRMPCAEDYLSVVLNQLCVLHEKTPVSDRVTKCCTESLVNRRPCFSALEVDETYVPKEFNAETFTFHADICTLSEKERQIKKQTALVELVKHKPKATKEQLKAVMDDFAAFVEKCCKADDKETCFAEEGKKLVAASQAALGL
# protocolSummary: SPR on HSA (Example 2; method not restated, as Example 1)
Answer with a number only, understood to be in M⁻¹ s⁻¹.

Here is how some binders turned out for kon.
{"columns": ["binder", "readoutNumber"],
 "data": [
  ["T039400045 (VHH, Single lysine at 45; also called HIS6-ENLYFQS-5GS-HSA006A06(K43R, P45K,K64R, K75R, K83R)) VHH: EVQLVESGGGVVQPGGSLRLSCAASGFTFRSFGMSWVRQAPGRGKEWVSSISGSGSDTLYADSVRGRFTISRDNSRNTLYLQMNSLRPEDTALYYCTIGGSLSRSSQGTLVTVSS", 306000],
  ["T039400043 (VHH, Single lysine at 43; also called HIS6-ENLYFQS-5GS-HSA006A06(K64R, K75R, K83R)) VHH: EVQLVESGGGVVQPGGSLRLSCAASGFTFRSFGMSWVRQAPGKGPEWVSSISGSGSDTLYADSVRGRFTISRDNSRNTLYLQMNSLRPEDTALYYCTIGGSLSRSSQGTLVTVSS", 353000],
  ["T039400044 (VHH, also called HIS6-ENLYFQS-5GS-HSA006A06(K43R, K64R, K75R, K83R, Q105K)) VHH: EVQLVESGGGVVQPGGSLRLSCAASGFTFRSFGMSWVRQAPGRGPEWVSSISGSGSDTLYADSVRGRFTISRDNSRNTLYLQMNSLRPEDTALYYCTIGGSLSRSSKGTLVTVSS", 357000]
]}

Task: Which kon is listed for T039400041 (VHH, Single lysine at 64; also called HIS6-ENLYFQS-5GS-HSA006A06(K43R, K75R, K83R)) VHH: EVQLVESGGGVVQPGGSLRLSCAASGFTFRSFGMSWVRQAPGRGPEWVSSISGSGSDTLYADSVKGRFTISRDNSRNTLYLQMNSLRPEDTALYYCTIGGSLSRSSQGTLVTVSS ?
Output: 289000

Task: Which kon is listed for T039400039 (VHH, Single lysine at 75; also called HIS6-ENLYFQS-5GS-HSA006A06(K43R, K64R, K83R)) VHH: EVQLVESGGGVVQPGGSLRLSCAASGFTFRSFGMSWVRQAPGRGPEWVSSISGSGSDTLYADSVRGRFTISRDNSKNTLYLQMNSLRPEDTALYYCTIGGSLSRSSQGTLVTVSS ?
Output: 301000

Task: Which kon is listed for T039400040 (VHH, No lysine; also called HIS6-ENLYFQS-5GS-HSA006A06(K43R, K64R, K75R, K83R)) VHH: EVQLVESGGGVVQPGGSLRLSCAASGFTFRSFGMSWVRQAPGRGPEWVSSISGSGSDTLYADSVRGRFTISRDNSRNTLYLQMNSLRPEDTALYYCTIGGSLSRSSQGTLVTVSS ?
Output: 371000

Task: Which kon is listed for T039400046 (VHH, Single lysine at the C-terminus; also called HIS6-ENLYFQS-5GS-HSA006A06(K43R, K64R, K75R, K83R)-K) VHH: EVQLVESGGGVVQPGGSLRLSCAASGFTFRSFGMSWVRQAPGRGPEWVSSISGSGSDTLYADSVRGRFTISRDNSRNTLYLQMNSLRPEDTALYYCTIGGSLSRSSQGTLVTVSS ?
Output: 377000

Task: Which kon is listed for T039400042 (VHH, Single lysine at 73; also called HIS6-ENLYFQS-5GS-HSA006A06(K43R, K64R, N73K, K75R, K83R)) VHH: EVQLVESGGGVVQPGGSLRLSCAASGFTFRSFGMSWVRQAPGRGPEWVSSISGSGSDTLYADSVRGRFTISRDKSRNTLYLQMNSLRPEDTALYYCTIGGSLSRSSQGTLVTVSS ?
Output: 198000
